# Tested on: MEL-JUSO (Melanoma)
# PROCEDURE_TEXT: combination Emax (second highest fraction inhibited in the dose matrix, 72 h); higher = more inhibition; extreme values may be limits of the assay
Decide by combination Emax: equal to or exceeding 0.3 means Satisfied, less means Not satisfied.

Here's what some known entries look like.
Confirm if combination Emax reported for the molecule Cn1cnc2c(F)c(Nc3ccc(Br)cc3Cl)c(C(=O)NOCCO)cc21 [Selumetinib] + C[C@@H]1COCCN1C2=NC(=NC(=C2)C3(CC3)[S@](=N)(=O)C)C4=C5C=CNC5=NC=C4 [AZD6738] (first compound max 10 µM, 7x7, partner max 10 µM) is 0.3 or above.
Satisfied

Confirm if combination Emax reported for the molecule Cn1cnc2c(F)c(Nc3ccc(Br)cc3Cl)c(C(=O)NOCCO)cc21 [Selumetinib] + CC(C)n1c(=O)n(C)c2cnc3cc(F)c(-c4ccc(OCCCN5CCCCC5)nc4)cc3c21 [AZD1390] (first compound max 10 µM, 7x7, partner max 0.3 µM) is 0.3 or above.
Satisfied

Others:
Confirm if combination Emax reported for the molecule COc1cccc(OCCCN)c1-c1cc(Nc2cnc(C#N)cn2)n[nH]1 [Prexasertib] + C=CCn1c(=O)c2cnc(Nc3ccc(N4CCN(C)CC4)cc3)nc2n1-c1cccc(C(C)(C)O)n1 [AZD1775] (first compound max 1 µM, partner max 1 µM) is 0.3 or above.
Satisfied

Confirm if combination Emax reported for the molecule NC1(C(=O)N[C@@H](CCO)c2ccc(Cl)cc2)CCN(c2ncnc3[nH]ccc23)CC1 [Capivasertib] + CCN(CCO)CCCOc1ccc2c(Nc3cc(CC(=O)Nc4cccc(F)c4)[nH]n3)ncnc2c1 [AZD2811] (first compound max 10 µM, 7x7, partner max 1 µM) is 0.3 or above.
Not satisfied

Confirm if combination Emax reported for the molecule C=CCn1c(=O)c2cnc(Nc3ccc(N4CCN(C)CC4)cc3)nc2n1-c1cccc(C(C)(C)O)n1 [AZD1775] + C1CN(CCC1(C(=O)N[C@@H](CCO)C2=CC=C(C=C2)Cl)N)C3=NC=NC4=C3C=CN4 [Capivasertib] (first compound max 3 µM, partner max 3 µM) is 0.3 or above.
Satisfied

Confirm if combination Emax reported for the molecule CCN(CCO)CCCOc1ccc2c(Nc3cc(CC(=O)Nc4cccc(F)c4)[nH]n3)ncnc2c1 [AZD2811] + C=CCn1c(=O)c2cnc(Nc3ccc(N4CCN(C)CC4)cc3)nc2n1-c1cccc(C(C)(C)O)n1 [AZD1775] (first compound max 1 µM, partner max 1 µM) is 0.3 or above.
Satisfied
